test system: HT-29; test: NCI tumour cell line growth inhibition, 48 h
The source made the active and inactive calls. No stated cut-off is given here; in the data, active = GI50 up to about 1.1 µM and inactive = higher.
One label from this list, please: active, inactive

Examples from the recorded data:
{"MOLECULE": "COc1cc(C(=O)Nc2cccc3ccccc23)c(Br)c(OC)c1OC", "LABEL VALUE": "inactive"}
{"MOLECULE": "O=c1[nH]nc2ccccc2c1Cl", "LABEL VALUE": "inactive"}
{"MOLECULE": "CC(=O)Oc1ccn2nc(C)c(Br)c2c1Br", "LABEL VALUE": "inactive"}

API: the following record is the query input.
Record request — test call for CCOC(=O)c1ccc(Nc2c3c(nc4ccccc24)CCCC3)cc1
inactive

----------
tested on: HOP-62; test: NCI tumour cell line growth inhibition, 48 h
Active and inactive are the calls of the source. Rule as the data show it: active = GI50 up to about 1.1 µM and inactive = higher.
REPORTED METRIC: GI50

{"COMPOUND": "COc1ccc(C2=NN(C(=O)c3ccc(Cl)cc3)C(O)(c3cc(F)c(Cl)cc3Cl)C2)cc1OC (centres undefined)", "GI50": "99.8 µM (inactive)"}
{"COMPOUND": "CC1=NN(C(=O)CC(=O)Nc2cccc(C)c2)C(=O)C1/N=N\\c1ccc(S(=O)(=O)c2ccc(/N=N/C3C(=O)N(C(=O)CC(=O)Nc4cccc(C)c4)N=C3C)cc2)cc1 (centres undefined)", "GI50": "> 100 µM (inactive)"}

Supply measured GI50 of Cc1nc(Nc2ccccc2Cl)sc1C(=O)CC(=O)C(=O)Nc1c(Cl)cccc1Cl in your reply.
22.8 µM (inactive)

Return GI50 for the following compound: O=C1C[C@@H]2CCCC[C@@H]2C12SCCS2
> 100 µM (inactive)

----------
system: NCI/ADR-RES; experiment: NCI tumour cell line growth inhibition, 48 h
Active and inactive are the calls of the source. Cut-off read from the data, not from the text of the source: active = GI50 up to about 1.1 µM and inactive = higher.
Form field: GI50 (one value per entry).

{"COMPOUND": "CN(C)c1ccc(/C=c2\\c3ccccc3n3c2cc(-c2ccccc2)[n+]3C)cc1", "GI50": "4.45 µM (inactive)"}
{"COMPOUND": "CCOC(=O)CCC(NC(=O)c1ccc(Nc2nc3cc(C(F)(F)F)ccc3nc2-c2ccccc2)cc1)C(=O)OCC (stereo not given)", "GI50": "19.5 µM (inactive)"}
{"COMPOUND": "CN1CCN(c2n[nH]c(=O)c3c2nnn3C2CCCCC2)CC1", "GI50": "> 100 µM (inactive)"}
{"COMPOUND": "CN1CCCC2C(c3ccccc3)C(C3=NCCCC3)C(c3ccccc3)CC21 (stereo not given)", "GI50": "53.8 µM (inactive)"}

Now, please, on to the next compound.
Dear colleague, please send me the reported GI50 for CC1(C)O[C@@H](CBr)C[C@H](C[C@H]2C[C@@H](O)C[C@@H](CCOCc3ccccc3)O2)O1 when you can.
18.7 µM (inactive)

----------
Each entry below carries its reported GI50.
test system: OVCAR-5; assay: NCI tumour cell line growth inhibition, 48 h
Activity calls are given as the source filed them. Rule as the data show it: active = GI50 up to about 1.1 µM and inactive = higher.

{"COMPOUND": "Cc1cc2c(cc1C)[n+]([O-])c(C(=O)/C=C/c1ccc(Cl)cc1)c(C)[n+]2[O-]", "TARGET UNDER TEST": "OVCAR-5", "RESULT": "42.3 µM (inactive)"}
{"COMPOUND": "Cc1ccc(O)c(-c2csc(NCN3CCN(CNc4nc(-c5cc(C)ccc5O)cs4)CC3)n2)c1", "TARGET UNDER TEST": "OVCAR-5", "RESULT": "> 100 µM (inactive)"}
{"COMPOUND": "CN1CCC(CN2c3ccccc3Sc3ccccc32)CC1", "TARGET UNDER TEST": "OVCAR-5", "RESULT": "19.4 µM (inactive)"}
{"COMPOUND": "Cc1cc(Nc2ccc(S(=O)(=O)O)cc2)c2ccccc2n1", "TARGET UNDER TEST": "OVCAR-5", "RESULT": "> 100 µM (inactive)"}
{"COMPOUND": "COc1cc2oc3c(c(=O)c2c(O)c1/C=C/C(C)C)CCC(C)(C)Oc1cc(O)ccc1-3", "TARGET UNDER TEST": "OVCAR-5", "RESULT": "16.6 µM (inactive)"}
{"COMPOUND": "Nc1nc(=O)n(C2OC(CO)C(O)C2O)c2ncc(-c3ccc(-c4ccccc4)cc3)nc12 (stereo not given)", "TARGET UNDER TEST": "OVCAR-5", "RESULT": "> 100 µM (inactive)"}
{"COMPOUND": "NS(=O)(=O)c1nnc(/N=C(/CCC(=O)O)C(=O)O)s1", "TARGET UNDER TEST": "OVCAR-5", "RESULT": "> 100 µM (inactive)"}
{"COMPOUND": "COc1cc(OC)c(OC)cc1/C=C\\c1nccc2ccccc12", "TARGET UNDER TEST": "OVCAR-5", "RESULT": "29.3 µM (inactive)"}
{"COMPOUND": "COc1ccc(N[S+]([O-])c2ccc(-c3ccccc3)cc2)cc1 (stereo not given)", "TARGET UNDER TEST": "OVCAR-5", "RESULT": "> 100 µM (inactive)"}

Would you please give the reported GI50 of NC(Cc1ccccc1)C(=O)OCN1C(=O)C2C3C=CC(C2C1=O)C1C2C(=O)N(COC(=O)C(N)Cc4ccccc4)C(=O)C2C31 (stereo not given) with OVCAR-5?
35.5 µM (inactive)

Source listed as ChEMBL document CHEMBL1201862.
